target: T1, Wild type CD117 purified protein (human, UniProt P10721 26-520, limits assumed); test: binding kinetics, FIGS. 45A-45K
T1 construct: Protein used in BLI/kinetics and cryo-EM; also called wt CD117; Wt CD117
T1 sequence (P10721 26-520 limits assumed): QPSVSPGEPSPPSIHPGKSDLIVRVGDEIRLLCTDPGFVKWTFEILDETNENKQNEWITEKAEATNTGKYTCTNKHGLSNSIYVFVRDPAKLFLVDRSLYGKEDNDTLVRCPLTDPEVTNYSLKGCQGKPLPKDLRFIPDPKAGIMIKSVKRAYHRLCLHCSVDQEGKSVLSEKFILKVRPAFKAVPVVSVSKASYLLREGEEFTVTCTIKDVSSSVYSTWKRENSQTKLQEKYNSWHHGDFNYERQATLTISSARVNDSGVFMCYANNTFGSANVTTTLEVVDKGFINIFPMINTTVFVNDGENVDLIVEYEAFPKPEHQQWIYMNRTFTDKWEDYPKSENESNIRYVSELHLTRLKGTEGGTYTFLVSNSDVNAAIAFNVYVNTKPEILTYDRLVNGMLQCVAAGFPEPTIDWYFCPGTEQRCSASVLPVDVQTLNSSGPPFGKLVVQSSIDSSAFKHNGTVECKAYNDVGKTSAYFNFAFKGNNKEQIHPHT
I'd be grateful if you could share measured pKd for these entries.
# log scale: pKd equals minus log10 of the concentration in mol/L

In: Give its pKd value. Item: ABTx052 variant VH_N104D (antibody, human IgG1, V domains shown) VH: QVQLVQSGAAVKKPGESLKISCKGSGYRFTSYWIGWVRQMPGKGLEWMGIIYPGDSDTRYSPSFQGQVTISAGKSISTAYLQWSSLKASDTAMYYCARHGRGYDGYEGAFDIWGQGTMVTVSS VL: AIQLTQSPSSLSASVGDRVTITCRASQGISSALAWYQQKPGKAPKLLIYDASSLESGVPSRFSGSGSGTDFTLTISSLQPEDFATYYCQQFNSYPLTFGGGTKVEIKR
Out: 9.31

In: Give its pKd value. Item: ABTx052 variant VL_F91T (antibody, human IgG1, V domains shown) VH: QVQLVQSGAAVKKPGESLKISCKGSGYRFTSYWIGWVRQMPGKGLEWMGIIYPGDSDTRYSPSFQGQVTISAGKSISTAYLQWSSLKASDTAMYYCARHGRGYNGYEGAFDIWGQGTMVTVSS VL: AIQLTQSPSSLSASVGDRVTITCRASQGISSALAWYQQKPGKAPKLLIYDASSLESGVPSRFSGSGSGTDFTLTISSLQPEDFATYYCQQTNSYPLTFGGGTKVEIK
Out: 9.72

In: Give its pKd value. Item: ABTx052 variant VL_S93G (antibody, human IgG1, V domains shown) VH: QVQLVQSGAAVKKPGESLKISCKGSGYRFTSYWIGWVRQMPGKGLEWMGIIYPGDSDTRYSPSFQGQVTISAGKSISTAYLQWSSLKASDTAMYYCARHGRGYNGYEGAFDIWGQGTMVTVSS VL: AIQLTQSPSSLSASVGDRVTITCRASQGISSALAWYQQKPGKAPKLLIYDASSLESGVPSRFSGSGSGTDFTLTISSLQPEDFATYYCQQFNGYPLTFGGGTKVEIK
Out: 10.15

In: Give its pKd value. Item: ABTx052 variant VH_G105A (antibody, human IgG1, V domains shown) VH: QVQLVQSGAAVKKPGESLKISCKGSGYRFTSYWIGWVRQMPGKGLEWMGIIYPGDSDTRYSPSFQGQVTISAGKSISTAYLQWSSLKASDTAMYYCARHGRGYNAYEGAFDIWGQGTMVTVSS VL: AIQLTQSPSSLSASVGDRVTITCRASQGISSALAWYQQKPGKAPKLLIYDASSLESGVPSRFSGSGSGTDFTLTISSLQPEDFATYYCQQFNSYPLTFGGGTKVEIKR
Out: 9.60

In: Give its pKd value. Item: ABTx052 variant VL_Y94H (antibody, human IgG1, V domains shown) VH: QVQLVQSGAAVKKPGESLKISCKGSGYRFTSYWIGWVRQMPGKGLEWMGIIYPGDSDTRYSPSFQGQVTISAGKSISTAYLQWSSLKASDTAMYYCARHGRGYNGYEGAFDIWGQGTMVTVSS VL: AIQLTQSPSSLSASVGDRVTITCRASQGISSALAWYQQKPGKAPKLLIYDASSLESGVPSRFSGSGSGTDFTLTISSLQPEDFATYYCQQFNSHPLTFGGGTKVEIK
Out: 8.50

In: Give its pKd value. Item: ABTx052 variant VL_Y94S (antibody, human IgG1, V domains shown) VH: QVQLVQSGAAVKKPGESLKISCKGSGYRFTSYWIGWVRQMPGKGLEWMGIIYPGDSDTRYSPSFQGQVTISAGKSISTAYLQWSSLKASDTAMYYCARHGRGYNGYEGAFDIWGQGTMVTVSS VL: AIQLTQSPSSLSASVGDRVTITCRASQGISSALAWYQQKPGKAPKLLIYDASSLESGVPSRFSGSGSGTDFTLTISSLQPEDFATYYCQQFNSSPLTFGGGTKVEIK
Out: 8.47

In: Give its pKd value. Item: ABTx052 variant VH_R59K (antibody, human IgG1, V domains shown) VH: QVQLVQSGAAVKKPGESLKISCKGSGYRFTSYWIGWVRQMPGKGLEWMGIIYPGDSDTKYSPSFQGQVTISAGKSISTAYLQWSSLKASDTAMYYCARHGRGYNGYEGAFDIWGQGTMVTVSS VL: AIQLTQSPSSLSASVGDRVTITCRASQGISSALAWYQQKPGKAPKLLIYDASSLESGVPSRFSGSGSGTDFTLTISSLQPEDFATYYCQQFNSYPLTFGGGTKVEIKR
Out: 9.01

In: Give its pKd value. Item: ABTx052 variant VL_N92R (antibody, human IgG1, V domains shown) VH: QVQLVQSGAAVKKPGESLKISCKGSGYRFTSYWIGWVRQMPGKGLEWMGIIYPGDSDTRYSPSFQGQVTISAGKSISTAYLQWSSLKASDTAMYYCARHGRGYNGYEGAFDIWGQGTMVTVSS VL: AIQLTQSPSSLSASVGDRVTITCRASQGISSALAWYQQKPGKAPKLLIYDASSLESGVPSRFSGSGSGTDFTLTISSLQPEDFATYYCQQFRSYPLTFGGGTKVEIK
Out: 9.17

In: Give its pKd value. Item: ABTx052 variant VL_N92Y (antibody, human IgG1, V domains shown) VH: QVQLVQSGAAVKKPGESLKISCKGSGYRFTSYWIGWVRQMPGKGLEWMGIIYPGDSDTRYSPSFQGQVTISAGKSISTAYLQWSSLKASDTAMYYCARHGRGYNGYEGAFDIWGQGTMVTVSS VL: AIQLTQSPSSLSASVGDRVTITCRASQGISSALAWYQQKPGKAPKLLIYDASSLESGVPSRFSGSGSGTDFTLTISSLQPEDFATYYCQQFYSYPLTFGGGTKVEIK
Out: 9.08
